pKi: −log10 of the molar value.
Endpoint: pKi. System: GST-tagged-Wee1 kinase (Homo sapiens, UniProt P30291). Items follow.
Sequence (P30291 whole entry): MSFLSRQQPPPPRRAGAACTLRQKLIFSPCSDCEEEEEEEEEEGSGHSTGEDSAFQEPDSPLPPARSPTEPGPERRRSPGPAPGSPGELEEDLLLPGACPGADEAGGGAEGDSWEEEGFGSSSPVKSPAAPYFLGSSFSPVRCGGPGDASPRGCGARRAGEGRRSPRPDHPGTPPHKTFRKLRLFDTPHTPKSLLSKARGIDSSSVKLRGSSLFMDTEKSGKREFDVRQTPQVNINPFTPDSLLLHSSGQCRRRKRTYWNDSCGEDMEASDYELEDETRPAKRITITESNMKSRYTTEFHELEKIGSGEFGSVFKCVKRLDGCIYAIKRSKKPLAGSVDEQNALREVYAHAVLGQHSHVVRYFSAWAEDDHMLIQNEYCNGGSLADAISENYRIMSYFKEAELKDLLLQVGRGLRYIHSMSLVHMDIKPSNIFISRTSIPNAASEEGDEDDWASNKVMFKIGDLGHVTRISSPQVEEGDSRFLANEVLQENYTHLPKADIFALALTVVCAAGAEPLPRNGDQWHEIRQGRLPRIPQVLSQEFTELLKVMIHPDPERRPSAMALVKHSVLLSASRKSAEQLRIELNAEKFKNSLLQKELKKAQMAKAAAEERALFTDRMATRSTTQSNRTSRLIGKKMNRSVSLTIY

The cases that follow already have their pKi on record.
In [3]: df
Out[3]:
                                   molecule        result
0  CN(C)CCN1CCc2cc(Nc3ncc4c(=O)n(-c5ccccc5Cl)c5nccn5c4n3)ccc21 [Example 93]        > 8.00
1  O=c1c2cnc(Nc3ccc4c(c3)CC(N3CCCC3)C4)nc2n2ccnc2n1-c1c(Cl)cccc1Cl (stereo not drawn) [Example 305]        > 8.00
2  CCCOc1ccc(CN2Cc3cc(Nc4ncc5c(=O)n(-c6ccccc6Cl)c6nccn6c5n4)ccc3C(C)(C)C2)cc1 [Example 357]  7.00 to 8.00
3  CN1CCc2ccc(Nc3ncc4c(=O)n(-c5ccccc5Cl)c5nccn5c4n3)cc2CC1 [Example 107]        > 8.00
4  O=c1c2cnc(Nc3ccc(C4CCCCN4)cc3)nc2n2ccnc2n1-c1ccccc1Cl (stereo not drawn) [Example 70]        > 8.00

Reported GST-tagged-Wee1 kinase (Homo sapiens, UniProt P30291) pKi for item O=c1c2cnc(Nc3ccc(Cn4cccn4)cc3)nc2n2ccnc2n1-c1ccccc1Cl [Example 88] was > 8.00

Let me check: CC(=O)N1Cc2cc(Nc3ncc4c(=O)n(-c5c(Cl)cc(F)cc5Cl)c5nccn5c4n3)ccc2C2(CC2)C1 [Example 165] , system GST-tagged-Wee1 kinase (Homo sapiens, UniProt P30291), measured pKi is > 8.00

Log: GST-tagged-Wee1 kinase (Homo sapiens, UniProt P30291), molecule Cc1ccc(Nc2ncc3c(=O)n(-c4ccccc4Cl)c4nccn4c3n2)cc1 [Example 69] , pKi = 7.00 to 8.00

Reading of pKi for CN1Cc2cc(Nc3ncc4c(=O)n(-c5c(Cl)cccc5Cl)c5nccn5c4n3)ccc2C(C)(C)C1 [Example 152] with GST-tagged-Wee1 kinase (Homo sapiens, UniProt P30291): > 8.00

Bench note, GST-tagged-Wee1 kinase (Homo sapiens, UniProt P30291): O=c1c2cnc(Nc3ccc(-c4cscn4)cc3)nc2n2ccnc2n1-c1ccccc1Cl [Example 349] , pKi reads 7.00 to 8.00

Item CN1CCN(c2ccc(Nc3ncc4c(=O)n(-c5c(Cl)cccc5Cl)c5nccn5c4n3)cc2Cl)CC1 [Example 136] ; assay system GST-tagged-Wee1 kinase (Homo sapiens, UniProt P30291); pKi reported as > 8.00

Lab note: molecule CNC(=O)N1Cc2cc(Nc3ncc4c(=O)n(-c5c(F)cccc5Cl)c5nccn5c4n3)ccc2C2(CC2)C1 [Example 300] tested on GST-tagged-Wee1 kinase (Homo sapiens, UniProt P30291); recorded pKi was > 8.00

pKi of CCCNC1Cc2ccc(Nc3ncc4c(=O)n(-c5c(F)cccc5Cl)c5nccn5c4n3)cc2C1 (stereo not drawn) [Example 258] , assay on GST-tagged-Wee1 kinase (Homo sapiens, UniProt P30291), is > 8.00

Lab entry: GST-tagged-Wee1 kinase (Homo sapiens, UniProt P30291) assay, molecule CN1Cc2cc(Nc3ncc4c(=O)n(-c5ccccc5Cl)c5nccn5c4n3)ccc2C2(CC2)C1 [Example 4] , pKi = > 8.00

---

These molecules were tested on GST-tagged-Wee1 kinase (Homo sapiens); Ki is the recorded read-out.

See these solved cases before continuing.
>>> print(df.to_string())
                                   molecule  assay_metric        result
0  CN1CCN(c2ccc(Nc3ncc4c(=S)n(-c5ccccc5Cl)c5nccn5c4n3)cc2)CC1            Ki       < 10 nM
1  CN(C)CCOc1ccc(Nc2ncc3c(=O)n(-c4ccccc4Cl)c4nccn4c3n2)cc1            Ki       < 10 nM
2  O=c1c2cnc(Nc3ccc(C4CCCN4)cc3)nc2n2ccnc2n1-c1c(Cl)cccc1Cl (stereo not shown)            Ki       < 10 nM
3  CN1CCN(c2cccc(Nc3ncc4c(=O)n(-c5ccccc5Cl)c5nccn5c4n3)c2)CC1            Ki       < 10 nM
4  O=C1COc2ccc(Nc3ncc4c(=O)n(-c5ccccc5Cl)c5nccn5c4n3)cc2N1            Ki  10 to 100 nM
5  O=c1c2cnc(Nc3cc(Cl)c(N4CCNCC4)c(Cl)c3)nc2n2ccnc2n1-c1ccccc1Cl            Ki  10 to 100 nM

Ki value, target or system GST-tagged-Wee1 kinase (Homo sapiens), for O=c1c2cnc(Nc3ccccc3)nc2n2ccnc2n1-c1ccccc1Cl : 10 to 100 nM

Entry O=c1c2cnc(Nc3ccc(N4C[C@@H]5C[C@H]4CN5)cc3)nc2n2ccnc2n1-c1c(Cl)cccc1Cl : Ki on GST-tagged-Wee1 kinase (Homo sapiens) = < 10 nM

# Ki measured on GST-tagged-Wee1 kinase (Homo sapiens) for item CCN1Cc2cc(Nc3ncc4c(=O)n(-c5ccccc5Cl)c5nccn5c4n3)ccc2C(C)(C)C1 = < 10 nM

With GST-tagged-Wee1 kinase (Homo sapiens) as the test system, CN(C)C1Cc2ccc(Nc3ncc4c(=O)n(-c5c(Cl)cccc5Cl)c5nccn5c4n3)cc2C1 (stereo not shown) showed Ki of < 10 nM

Recorded Ki for O=C1CCCN1CCCNc1ccc(Nc2ncc3c(=O)n(-c4ccccc4Cl)c4nccn4c3n2)cc1 on GST-tagged-Wee1 kinase (Homo sapiens) was < 10 nM

Response field Ki (GST-tagged-Wee1 kinase (Homo sapiens)) for item O=C(Nc1ccncc1)c1ccc(Nc2ncc3c(=O)n(-c4ccccc4Cl)c4nccn4c3n2)cc1 : 10 to 100 nM

Item: COc1cc(N2CCN(C)CC2)ccc1Nc1ncc2c(=O)n(-c3ccccc3Cl)c3nccn3c2n1 | System: GST-tagged-Wee1 kinase (Homo sapiens) | Ki: > 100 nM

// Ki (GST-tagged-Wee1 kinase (Homo sapiens)) for CN1CCN(c2ccc(Nc3ncc4c(=O)n(C5CCCCC5)c5nccn5c4n3)cc2)CC1 = > 100 nM

Tested on GST-tagged-Wee1 kinase (Homo sapiens), the item COCCN1CCN(c2ccc(Nc3ncc4c(=O)n(-c5ccccc5Cl)c5nccn5c4n3)cc2)CC1 showed Ki equal to < 10 nM

The measured Ki that CN1CCN(c2ccc(Nc3ncc4c(=O)n(-c5c(F)cc(F)cc5Cl)c5nccn5c4n3)cc2)CC1 showed for GST-tagged-Wee1 kinase (Homo sapiens) is < 10 nM

Where do these numbers come from? They come from patent US8710065B2.
